Tested on: Wolbachia pipientis
method-description: Anti-Wolbachia Cell-Based Screen
Type: functional
Design: scale not given: in the data most compounds retested in dose-response had high values
conditions: 5 µM
About 13,000 (27%) of roughly 48,000 compounds showed an effect of 50% or more. The list shows a part of the results.
attribute-measured: Percent Effect (%)
Write the answer as a number in %, unit excluded.

Consider the following illustrative entries.
• CC(C)c1nc(CNc2ccc(CNS(C)(=O)=O)cc2)cs1 = -10.73
• CC(C)(C)n1cc(CNC2CCN(C(=O)c3ccncc3)CC2)cn1 = -2.234
• O=C(Nc1ccccc1-c1cccs1)N1CCN(CC(F)F)CC1 = -15.51

query: Please give the measured Percent Effect for this molecule: CCS(=O)(=O)c1ccc(N2CCC(NC(=O)C(C)SC)CC2)cc1 (stereo not given)
result: 6.219

query: Please give the measured Percent Effect for this molecule: "Cc1cc(CNc2ccnn2CC(C)C)ccc1-n1cncn1"
result: -23.25

query: Please give the measured Percent Effect for this molecule: "CC(C)n1cnnc1Cn1c(=O)ccc2ccccc21"
result: -18.72

query: Please give the measured Percent Effect for this molecule: "CCc1nc2c(c(N3CCOCC3)n1)CCN(C(=O)N1CCCC1)CC2"
result: -8.543

query: Please give the measured Percent Effect for this molecule: "CC(C)(C)c1cc(NC(=O)CN2CCC(N3CCNC3=O)CC2)on1"
result: 95.17
